From: patent US20230027026A1

molecular target: EGFR (A767_dupASV) expressing Ba/F3 stable cell line (Homo sapiens, UniProt P00533, DUP767-769, cells depend on it); assay: Cellular proliferation (Alamar Blue) assay, EGFR A767_dupASV Ba/F3; format: cell-based; details: EGFR A767_dupASV Ba/F3, 72 hr, read-out: A767 IC50
Sequence (P00533 with tags, fused parts or gaps DUP767-769): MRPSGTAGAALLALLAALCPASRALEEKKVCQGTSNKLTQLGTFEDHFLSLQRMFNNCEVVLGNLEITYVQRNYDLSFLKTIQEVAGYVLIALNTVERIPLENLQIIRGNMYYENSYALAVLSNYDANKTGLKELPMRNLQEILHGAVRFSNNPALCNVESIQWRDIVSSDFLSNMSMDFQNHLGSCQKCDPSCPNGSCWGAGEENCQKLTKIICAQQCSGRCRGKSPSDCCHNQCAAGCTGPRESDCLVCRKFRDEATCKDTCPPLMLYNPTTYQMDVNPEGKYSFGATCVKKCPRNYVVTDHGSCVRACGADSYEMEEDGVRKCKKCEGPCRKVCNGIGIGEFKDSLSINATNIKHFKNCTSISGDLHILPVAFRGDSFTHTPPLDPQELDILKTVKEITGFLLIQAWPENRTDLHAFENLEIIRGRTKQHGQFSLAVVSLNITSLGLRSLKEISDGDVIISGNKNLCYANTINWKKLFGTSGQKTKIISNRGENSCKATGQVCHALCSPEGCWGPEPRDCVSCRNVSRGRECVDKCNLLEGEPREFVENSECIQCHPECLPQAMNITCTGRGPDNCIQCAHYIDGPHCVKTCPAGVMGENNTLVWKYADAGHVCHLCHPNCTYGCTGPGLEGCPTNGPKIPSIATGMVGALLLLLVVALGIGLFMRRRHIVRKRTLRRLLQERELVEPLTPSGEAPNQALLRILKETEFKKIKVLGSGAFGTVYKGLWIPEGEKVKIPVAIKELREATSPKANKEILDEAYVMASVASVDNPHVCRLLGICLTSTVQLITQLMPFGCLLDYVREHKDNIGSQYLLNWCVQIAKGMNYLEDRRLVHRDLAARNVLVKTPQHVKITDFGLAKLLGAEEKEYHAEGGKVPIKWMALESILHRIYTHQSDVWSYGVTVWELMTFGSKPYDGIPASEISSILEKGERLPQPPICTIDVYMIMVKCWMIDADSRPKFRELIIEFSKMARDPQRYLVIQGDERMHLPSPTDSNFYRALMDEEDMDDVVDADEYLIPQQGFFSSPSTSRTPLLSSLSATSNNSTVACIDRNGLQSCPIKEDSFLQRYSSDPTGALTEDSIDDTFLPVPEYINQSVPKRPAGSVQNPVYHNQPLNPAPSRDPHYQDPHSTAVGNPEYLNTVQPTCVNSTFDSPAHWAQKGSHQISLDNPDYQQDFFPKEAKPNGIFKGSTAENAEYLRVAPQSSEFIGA
Counter-ions that a name gives are not always drawn.

[
  {
    "compound": "CN(C)C/C=C/C(=O)Nc1cccc(N2C(=O)N(Cc3ccccc3)Cc3cnc(Nc4cn(C)nc4Cl)nc32)c1 [Compound 20]",
    "unit string": "nM",
    "value comparator": "=",
    "GI50": 34
  },
  {
    "compound": "C=CC(=O)NC1CCCC(N2C(=O)N(c3ccc(F)cc3)Cc3cnc(Nc4cn(C)nc4Cl)nc32)C1 (centres unmarked) [Compound 36]",
    "unit string": "nM",
    "value comparator": "=",
    "GI50": 3920
  },
  {
    "compound": "CN(C)C/C=C/C(=O)Nc1cccc(N2C(=O)N(Cc3ccccc3)Cc3cnc(Nc4cnn(CCO)c4)nc32)c1 [Compound 14]",
    "unit string": "nM",
    "value comparator": "=",
    "GI50": 2570
  },
  {
    "compound": "C=CC(=O)Nc1cccc(N2C(=O)N(c3ccccc3)Cc3cnc(Nc4cn(C(C)(C)C#N)nc4Cl)nc32)c1 [Compound 123, trifluoroacetate salt]",
    "unit string": "nM",
    "value comparator": "=",
    "GI50": 176
  },
  {
    "compound": "CN(C)C/C=C/C(=O)Nc1cccc(N2C(=O)N(c3ccc(F)cc3)Cc3cnc(Nc4cnn(C)c4)nc32)c1 [Compound 18]",
    "unit string": "nM",
    "value comparator": "=",
    "GI50": 421
  },
  {
    "compound": "Cc1nn(C)cc1Nc1ncc2c(n1)N(c1cccc(NC(=O)/C=C/CN(C)C)c1)C(=O)N(Cc1ccccc1)C2 [Compound 23]",
    "unit string": "nM",
    "value comparator": "=",
    "GI50": 124
  },
  {
    "compound": "C=CC(=O)Nc1cc(N2C(=O)N(Cc3ccccc3)Cc3cnc(Nc4cn(C)nc4Cl)nc32)ccc1OC(F)(F)F [Compound 78]",
    "unit string": "nM",
    "value comparator": "=",
    "GI50": 8370
  },
  {
    "compound": "Cn1cc(Nc2ncc3c(n2)N(c2cccc(NC(=O)/C=C/CF)c2)C(=O)N(Cc2ccccc2)C3)c(Cl)n1 [Compound 74]",
    "unit string": "nM",
    "value comparator": "=",
    "GI50": 11
  },
  {
    "compound": "C=C(OC)C(=O)Nc1cccc(N2C(=O)N(c3ccccc3)Cc3cnc(Nc4cn(C)nc4Cl)nc32)c1 [Compound 127]",
    "unit string": "nM",
    "value comparator": "≥",
    "GI50": 10000
  },
  {
    "compound": "CN(C)C/C=C/C(=O)Nc1cccc(N2C(=O)N(Cc3ccccc3)Cc3cnc(Nc4ccncc4)nc32)c1 [Compound 96]",
    "unit string": "nM",
    "value comparator": ">",
    "GI50": 9350
  },
  {
    "compound": "C=CC(=O)Nc1cccc(N2C(=O)N(Cc3ccccc3)Cc3cnc(Nc4ccc(N5CCC(N(C)C)CC5)nc4)nc32)c1 [Compound 72]",
    "unit string": "nM",
    "value comparator": "=",
    "GI50": 100
  },
  {
    "compound": "CN(C)C/C=C/C(=O)Nc1cccc(N2C(=O)N(Cc3ccccc3)Cc3cnc(Nc4ccc5c(c4)ncn5C)nc32)c1 [Compound 102]",
    "unit string": "nM",
    "value comparator": "=",
    "GI50": 694
  },
  {
    "compound": "C=CC(=O)N1CC[C@H](N2C(=O)N(c3ccccc3)Cc3cnc(Nc4cn(C)nc4Cl)nc32)C1 [Compound 41]",
    "unit string": "nM",
    "value comparator": "=",
    "GI50": 504
  },
  {
    "compound": "C=C(C)C(=O)Nc1cccc(N2C(=O)N(c3ccccc3)Cc3cnc(Nc4cn(C)nc4Cl)nc32)c1 [Compound 121]",
    "unit string": "nM",
    "value comparator": "=",
    "GI50": 8600
  }
]

* * *

molecular target: EGFR(D770_N771insSVD) expressing Ba/F3 stable cell line (Homo sapiens, UniProt P00533, DUP768-770, cells depend on it); assay: Cellular proliferation (Alamar Blue) assay, EGFR D770_N771insSVD Ba/F3; type: cell-based; conditions: EGFR D770_N771insSVD Ba/F3, 72 hr, read-out: D770 IC50
Sequence (P00533 with tags, fused parts or gaps DUP768-770): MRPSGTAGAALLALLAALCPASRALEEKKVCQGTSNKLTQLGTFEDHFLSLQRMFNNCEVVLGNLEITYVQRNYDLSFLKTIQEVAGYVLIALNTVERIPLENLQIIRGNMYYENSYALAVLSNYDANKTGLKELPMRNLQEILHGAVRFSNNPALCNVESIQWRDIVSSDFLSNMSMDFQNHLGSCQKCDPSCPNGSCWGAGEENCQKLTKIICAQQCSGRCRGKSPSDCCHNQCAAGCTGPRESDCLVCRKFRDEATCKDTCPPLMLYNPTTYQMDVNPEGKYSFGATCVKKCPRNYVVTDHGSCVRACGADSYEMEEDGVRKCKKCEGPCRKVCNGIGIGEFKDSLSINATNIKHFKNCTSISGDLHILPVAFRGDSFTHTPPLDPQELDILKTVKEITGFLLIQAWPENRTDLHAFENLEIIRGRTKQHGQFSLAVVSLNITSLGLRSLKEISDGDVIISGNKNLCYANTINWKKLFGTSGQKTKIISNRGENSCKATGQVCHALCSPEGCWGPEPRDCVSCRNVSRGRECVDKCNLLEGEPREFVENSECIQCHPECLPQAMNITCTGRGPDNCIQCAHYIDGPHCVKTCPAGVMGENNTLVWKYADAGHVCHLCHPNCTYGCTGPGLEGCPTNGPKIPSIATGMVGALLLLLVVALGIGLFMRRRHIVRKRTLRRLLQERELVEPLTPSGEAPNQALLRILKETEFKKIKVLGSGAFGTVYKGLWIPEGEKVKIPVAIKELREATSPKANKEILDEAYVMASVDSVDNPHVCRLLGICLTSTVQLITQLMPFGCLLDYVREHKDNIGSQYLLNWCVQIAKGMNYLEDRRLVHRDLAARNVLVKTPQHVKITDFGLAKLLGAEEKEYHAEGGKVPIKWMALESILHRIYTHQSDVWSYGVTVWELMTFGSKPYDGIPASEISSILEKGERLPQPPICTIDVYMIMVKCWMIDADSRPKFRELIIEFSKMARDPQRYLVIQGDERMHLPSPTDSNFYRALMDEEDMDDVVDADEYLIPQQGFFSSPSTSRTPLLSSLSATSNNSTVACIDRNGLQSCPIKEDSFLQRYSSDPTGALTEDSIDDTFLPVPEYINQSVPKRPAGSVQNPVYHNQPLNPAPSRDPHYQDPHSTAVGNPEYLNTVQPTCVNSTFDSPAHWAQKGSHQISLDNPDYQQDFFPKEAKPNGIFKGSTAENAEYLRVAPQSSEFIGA
// reported log10(GI50) per item
readout kind: log10(GI50) (log10 of the value in nM)

[
  {
    "compound": "C=CC(=O)Nc1cccc(N2C(=O)N(Cc3ccccc3)Cc3cnc(Nc4nc(C)cs4)nc32)c1 [Compound 25]",
    "log10(GI50)": 1.84
  },
  {
    "compound": "CN(C)C/C=C/C(=O)Nc1cccc(N2C(=O)N(Cc3ccccc3)Cc3cnc(Nc4ccc(N5CCN(C)CC5)nc4)nc32)c1 [Compound 66]",
    "log10(GI50)": 3.50
  },
  {
    "compound": "CN(C)C/C=C/C(=O)Nc1cccc(N2C(=O)N(Cc3ccc(F)cc3)Cc3cnc(Nc4cn(C)nc4Cl)nc32)c1 [Compound 57]",
    "log10(GI50)": 2.68
  },
  {
    "compound": "CN(C)C/C=C/C(=O)Nc1cccc(N2C(=O)N(Cc3ccc(F)cc3)Cc3cnc(Nc4cnn(C)c4)nc32)c1 [Compound 2]",
    "log10(GI50)": 2.95
  },
  {
    "compound": "CN(C)C/C=C/C(=O)N(C)c1cccc(N2C(=O)N(c3ccccc3)Cc3cnc(Nc4cn(C)nc4Cl)nc32)c1 [Compound 104]",
    "log10(GI50)": 2.95
  }
]

* * *

biological target: EGFR (A767_dupASV) expressing Ba/F3 stable cell line (Homo sapiens, UniProt P00533, DUP767-769, cells depend on it); assay: Cellular proliferation (Alamar Blue) assay, EGFR A767_dupASV Ba/F3; format: cell-based; conditions: EGFR A767_dupASV Ba/F3, 72 hr, read-out: A767 IC50
Where a name gives a salt, the structure may show the parent alone.

[
  {
    "compound": "C=CC(=O)N1CC[C@@H](N2C(=O)N(Cc3ccccc3)Cc3cnc(Nc4cn(C)nc4Cl)nc32)C1 (single isomer, unassigned)",
    "GI50": "≥ 10000 nM"
  },
  {
    "compound": "Cc1cn2cc(Nc3ncc4c(n3)N(c3cccc(NC(=O)/C=C/CN(C)C)c3)C(=O)N(Cc3ccccc3)C4)ccc2n1",
    "GI50": "2970 nM"
  },
  {
    "compound": "C=CC(=O)Nc1cccc(N2C(=O)N(Cc3ccccc3)Cc3cnc(Nc4cnn(CCO)c4)nc32)c1",
    "GI50": "45 nM"
  },
  {
    "compound": "Cc1cc(Nc2ncc3c(n2)N(c2cccc(NC(=O)/C=C/CN(C)C)c2)C(=O)N(Cc2ccccc2)C3)sn1",
    "GI50": "121 nM"
  },
  {
    "compound": "C=CC(=O)Nc1cccc(N2C(=O)N(Cc3ccc(F)cc3)Cc3cnc(Nc4cnn(C)c4)nc32)c1",
    "GI50": "184 nM"
  },
  {
    "compound": "CN1CCN(C/C=C/C(=O)Nc2cccc(N3C(=O)N(c4ccccc4)Cc4cnc(Nc5cn(C)nc5Cl)nc43)c2)CC1",
    "GI50": "1090 nM"
  },
  {
    "compound": "Cc1nn(CC(F)(F)F)cc1Nc1ncc2c(n1)N(c1cccc(NC(=O)/C=C/CN(C)C)c1)C(=O)N(Cc1ccccc1)C2",
    "GI50": "103 nM"
  },
  {
    "compound": "COc1nn(C)cc1Nc1ncc2c(n1)N(c1cccc(NC(=O)/C=C/CN(C)C)c1)C(=O)N(Cc1ccccc1)C2",
    "GI50": "65 nM"
  },
  {
    "compound": "C=CS(=O)(=O)Nc1cccc(N2C(=O)N(Cc3ccccc3)Cc3cnc(Nc4cnn(C)c4)nc32)c1",
    "GI50": "2260 nM"
  },
  {
    "compound": "Cc1cc(Nc2ncc3c(n2)N(C2CCCC(NC(=O)/C=C/CN(C)C)C2)C(=O)N(Cc2ccccc2)C3)sn1 (stereo not drawn)",
    "GI50": "2910 nM"
  },
  {
    "compound": "CN(C)C/C=C/C(=O)Nc1cccc(N2C(=O)N(Cc3ccccc3)Cc3cnc(Nc4ccc5cnn(C)c5c4)nc32)c1",
    "GI50": "352 nM"
  },
  {
    "compound": "CN(C)C/C=C/C(=O)Nc1cccc(N2C(=O)N(Cc3ccccc3)Cc3cnc(Nc4cnn(CC(F)(F)F)c4)nc32)c1",
    "GI50": "106 nM"
  },
  {
    "compound": "CC(c1ccccc1)N1Cc2cnc(Nc3cnn(C)c3)nc2N(c2cccc(NC(=O)/C=C/CN(C)C)c2)C1=O (racemic)",
    "GI50": "105 nM"
  },
  {
    "compound": "Cn1cc(Nc2ncc3c(n2)N(c2cccc(NC(=O)/C=C/CF)c2)C(=O)N(Cc2ccccc2)C3)c(F)n1",
    "GI50": "22 nM"
  },
  {
    "compound": "C=CC(=O)N1CC[C@H](N2C(=O)N(Cc3ccccc3)Cc3cnc(Nc4cn(C)nc4Cl)nc32)C1 (single isomer, unassigned)",
    "GI50": "≥ 10000 nM"
  },
  {
    "compound": "CN(C)C/C=C/C(=O)Nc1cccc(N2C(=O)N(Cc3ccccc3)Cc3cnc(Nc4ccn(C)n4)nc32)c1",
    "GI50": "244 nM"
  },
  {
    "compound": "COC/C=C/C(=O)Nc1cccc(N2C(=O)N(c3ccccc3)Cc3cnc(Nc4cn(C)nc4Cl)nc32)c1",
    "GI50": "98 nM"
  },
  {
    "compound": "C=CC(=O)Nc1cccc(N2C(=O)N(c3ccccc3)Cc3cnc(Nc4cccnc4F)nc32)c1",
    "GI50": "8 nM"
  },
  {
    "compound": "CN(C)C/C=C/C(=O)N(C)c1cccc(N2C(=O)N(Cc3ccccc3)Cc3cnc(Nc4cnn(C)c4)nc32)c1",
    "GI50": "2810 nM"
  },
  {
    "compound": "Cn1cc(Nc2ncc3c(n2)N(c2cccc(NC(=O)/C=C/CN4CCCCC4)c2)C(=O)N(Cc2ccccc2)C3)c(F)n1",
    "GI50": "123 nM"
  },
  {
    "compound": "CN(C)C/C=C/C(=O)Nc1cccc(N2C(=O)N(Cc3ccccc3)Cc3cnc(Nc4ccc5c(ccn5C)c4)nc32)c1",
    "GI50": "115 nM"
  },
  {
    "compound": "C=CC(=O)Nc1cccc(N2C(=O)N(Cc3ccccc3)Cc3cnc(Nc4ccc(N5CCOCC5)nc4)nc32)c1",
    "GI50": "14 nM"
  },
  {
    "compound": "CN(C)C/C=C/C(=O)Nc1cccc(N2C(=O)N(Cc3ccccc3)Cc3cnc(Nc4cn(C5CCN(C)CC5)nc4Cl)nc32)c1 [Compound 65, trifluoroacetate salt]",
    "GI50": "964 nM"
  },
  {
    "compound": "C=CC(=O)Nc1ccccc1N1C(=O)N(c2ccccc2)Cc2cnc(Nc3cn(C)nc3Cl)nc21",
    "GI50": "≥ 10000 nM"
  },
  {
    "compound": "Cn1cc(Nc2ncc3c(n2)N(c2cccc(NC(=O)/C=C/Cl)c2)C(=O)N(Cc2ccccc2)C3)cn1",
    "GI50": "1350 nM"
  },
  {
    "compound": "C[C@@H](c1ccccc1)N1Cc2cnc(Nc3cnn(C)c3)nc2N(c2cccc(NC(=O)/C=C/CN(C)C)c2)C1=O (single isomer, unassigned)",
    "GI50": "109 nM"
  },
  {
    "compound": "CN(C)C/C=C/C(=O)N(C)c1cccc(N2C(=O)N(c3ccccc3)Cc3cnc(Nc4cn(C)nc4Cl)nc32)c1",
    "GI50": "255 nM"
  }
]
